# targetEntity: SARS-CoV-1 Spike (SARS-CoV-1, UniProt P59594 14-1195)
# assayNotes: ELISA
propertyLabel: IC50 (nM)
One number for each entry, in nM.

Consider the binder shown here: 2-G20-A (antibody, V domains shown) VH: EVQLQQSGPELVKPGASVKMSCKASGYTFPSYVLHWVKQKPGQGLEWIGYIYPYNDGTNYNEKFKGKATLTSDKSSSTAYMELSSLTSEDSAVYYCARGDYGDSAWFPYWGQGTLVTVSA VL: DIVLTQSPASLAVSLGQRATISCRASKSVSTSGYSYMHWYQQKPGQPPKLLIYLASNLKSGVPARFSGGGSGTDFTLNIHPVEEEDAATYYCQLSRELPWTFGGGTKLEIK What is its recorded IC50?
6.65
